Test: Nuclear factor erythroid 2-related factor 2/antioxidant responsive element (Nrf2/ARE) small molecule agonists: luciferase reporter gene qHTS assay in human keratinocytes (AID 1919969); also: nearly all actives have a fitted effect of over 35% in size
Conditions: KeratinoSens HaCaT ARE-luciferase, luminescence, 24 h; series mostly up to 92.4 µM
Inconclusive results are not listed. Activity calls are given as the source filed them. Calls follow the shape of the full dose curve.
# valid calls are Yes (active), No (inactive); nothing else

Solved cases below.
compound=CC(=O)/C=C/c1ccc2c(c1)OCO2 qualitative_label=Yes
compound=CCCCc1ccccc1 qualitative_label=No
compound=Cc1nc(N)nc(N)n1 qualitative_label=No
compound=NCC1(CC(=O)O)CCCCC1 qualitative_label=No
compound="C(COCC1CO1)OCC1CO1 (stereo unspecified)" qualitative_label=Yes

Task: Given CCOC(=O)CCl , state the outcome it received in this test.
Result: No

Just for reference, PubChem BioAssay (Tox21) is where these values come from.
